# measured_on: human GR (Homo sapiens, UniProt P04150)
# Construct: U937 cells contain an endogenous glucocorticoid receptor (GR); endogenous in cells; host or cells: U937 cells stably transfected with the TNF-alpha promoter/beta-lactamase reporter
# Sequence (P04150 1-777): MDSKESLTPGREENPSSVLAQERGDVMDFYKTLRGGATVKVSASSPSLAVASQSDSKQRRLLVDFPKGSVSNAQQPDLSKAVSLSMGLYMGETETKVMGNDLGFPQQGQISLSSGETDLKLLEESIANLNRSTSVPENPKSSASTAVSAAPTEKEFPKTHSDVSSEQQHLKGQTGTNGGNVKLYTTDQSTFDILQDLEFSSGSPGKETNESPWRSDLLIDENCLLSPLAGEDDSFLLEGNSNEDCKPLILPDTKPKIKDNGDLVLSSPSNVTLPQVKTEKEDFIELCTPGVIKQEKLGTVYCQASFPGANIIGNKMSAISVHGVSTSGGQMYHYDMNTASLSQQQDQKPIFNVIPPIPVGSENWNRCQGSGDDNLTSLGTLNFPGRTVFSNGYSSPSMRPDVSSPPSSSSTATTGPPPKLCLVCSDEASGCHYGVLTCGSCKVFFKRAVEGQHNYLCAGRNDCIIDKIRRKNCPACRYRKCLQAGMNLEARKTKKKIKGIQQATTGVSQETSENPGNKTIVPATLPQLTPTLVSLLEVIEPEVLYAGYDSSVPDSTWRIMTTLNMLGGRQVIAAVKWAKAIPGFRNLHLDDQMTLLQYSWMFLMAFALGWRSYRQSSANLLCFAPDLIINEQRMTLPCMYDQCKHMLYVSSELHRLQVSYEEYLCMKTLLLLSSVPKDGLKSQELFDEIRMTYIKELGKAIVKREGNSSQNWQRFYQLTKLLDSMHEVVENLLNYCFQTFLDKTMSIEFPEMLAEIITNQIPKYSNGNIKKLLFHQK
# method: Transrepression Assay (GITAR), TNFα-β-lactamase reporter gene in U937 cells
# Type: cell-based
# assay_context: inflection point; U937 cells; Table 1; read-out: Transrepression U937 Cells GITAR IP
pEC50: −log10 of the molar value.
attribute_measured: pEC50

COc1cc(CN(CCO)C(=O)[C@H]2CCC3=Cc4c(cnn4-c4ccc(F)cc4)C[C@@]32C)cc(OC)c1 [Compound 34]	6.19

1: C[C@]12Cc3cnn(-c4ccc(F)cc4)c3C=C1CC[C@@H]2C(=O)N(Cc1ccc(Cl)cc1Cl)CC1CC1 [Compound 7]
2: C[C@]12Cc3cnn(-c4ccc(F)cc4)c3C=C1CC[C@@H]2C(=O)N(CCO)Cc1csc2ccc(Cl)cc12 [Compound 31]
3: CCCN(CCO)C(=O)[C@H]1CCC2=Cc3c(cnn3-c3ccc(F)cc3)C[C@@]21C [Compound 37]
Reorder the items by pEC50, least to greatest. List the labels in the requested order.
3, 2, 1
(3: 5.47, 2: 5.91, 1: 6.23)

====

# measured_on: human GR (Homo sapiens, UniProt P04150)
# Construct: U937 cells contain an endogenous glucocorticoid receptor (GR); endogenous in cells; host or cells: U937 cells stably transfected with the TNF-alpha promoter/beta-lactamase reporter
# method: Transrepression Assay (GITAR), TNFα-β-lactamase reporter gene in U937 cells
# Assay type: cell-based
# assay_context: U-937, U937 cells; activity repressed by 100 nM dexamethasone = 100%; Table 1; read-out: Transrepression U937 Cells GITAR Emax
attribute_measured: Emax (%)

COc1ccccc1CCN(CC(O)C(F)(F)F)C(=O)[C@H]1CCC2=Cc3c(cnn3-c3ccc(F)cc3)C[C@@]21C (stereo partly shown)	56.9

I: COc1ccccc1CCN(CC(O)CC(F)(F)F)C(=O)[C@H]1CCC2=Cc3c(cnn3-c3ccc(F)cc3)C[C@@]21C (stereo partly shown)
II: C[C@]12Cc3cnn(-c4ccc(F)cc4)c3C=C1CC[C@@H]2C(=O)N(CCO)CC(=O)c1coc2ccccc12
III: C[C@]12Cc3cnn(-c4ccc(F)cc4)c3C=C1CC[C@@H]2C(=O)N1CCCC1CCc1ccccc1 (stereo partly shown)
// ranking: key=Emax, reverse=True // rank by listing labels in the order requested
I, II, III
(I: 53.9%, II: 32.5%, III: 10.2%)

====

# measured_on: human GR (Homo sapiens, UniProt P04150)
# Construct: U937 cells contain an endogenous glucocorticoid receptor (GR); endogenous in cells; host or cells: U937 cells stably transfected with the TNF-alpha promoter/beta-lactamase reporter
# method: Transrepression Assay (GITAR), TNFα-β-lactamase reporter gene in U937 cells
# Format: cell-based
# assay_context: inflection point; U937 cells; compounds in the art (WO03/086294); read-out: Transrepression U937 Cells GITAR IP
attribute_measured: pEC50
Quick note: pEC50 values are minus log10 of concentrations in mol/L.

Look up pEC50 for this compound: C[C@]12Cc3cnn(-c4ccc(F)cc4)c3C=C1CC[C@@H]2C(=O)NCc1ccccc1 [reference compound]
5.37

====

# measured_on: Glucocorticoid Receptor (Homo sapiens, UniProt P04150)
# Construct: These cells express large amount of the GR and are very responsive to GC treatment; endogenous in cells; host or cells: A549 cells transiently transfected with the MMTV-LUC reporter
# Sequence (P04150 1-777): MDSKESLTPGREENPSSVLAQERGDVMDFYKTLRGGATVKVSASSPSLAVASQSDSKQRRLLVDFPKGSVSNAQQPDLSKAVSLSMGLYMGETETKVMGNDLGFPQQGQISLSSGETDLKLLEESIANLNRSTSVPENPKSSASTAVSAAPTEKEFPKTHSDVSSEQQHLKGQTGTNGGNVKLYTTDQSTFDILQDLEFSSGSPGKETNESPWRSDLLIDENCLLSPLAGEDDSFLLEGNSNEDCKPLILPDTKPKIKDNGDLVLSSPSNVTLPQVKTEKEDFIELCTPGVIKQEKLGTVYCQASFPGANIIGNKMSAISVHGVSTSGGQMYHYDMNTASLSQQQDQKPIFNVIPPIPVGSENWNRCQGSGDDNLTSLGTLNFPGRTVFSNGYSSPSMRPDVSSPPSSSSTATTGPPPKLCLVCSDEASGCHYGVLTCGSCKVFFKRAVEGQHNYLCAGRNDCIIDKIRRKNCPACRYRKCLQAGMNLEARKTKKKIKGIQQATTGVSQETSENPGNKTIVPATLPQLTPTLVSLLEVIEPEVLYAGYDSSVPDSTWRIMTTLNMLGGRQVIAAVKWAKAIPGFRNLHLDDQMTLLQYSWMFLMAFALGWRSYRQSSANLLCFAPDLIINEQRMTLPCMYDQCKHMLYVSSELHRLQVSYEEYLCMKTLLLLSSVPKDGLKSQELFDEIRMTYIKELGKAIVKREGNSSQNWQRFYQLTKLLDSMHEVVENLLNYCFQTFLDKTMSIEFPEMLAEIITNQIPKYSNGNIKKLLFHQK
# method: Trans-Activation Modulation of Glucocorticoid Receptor (GRAMMER), MMTV-LUC reporter gene in A549 cells
# Type: cell-based
# assay_context: inflection point; A549 cells; Table 1; read-out: Transactivation A549 Cells GRAMMER IP
pEC50: −log10 of the molar value.
attribute_measured: pEC50

Worked set:
C[C@]12Cc3cnn(-c4ccc(F)cc4)c3C=C1CC[C@@H]2C(=O)N(CCc1ccccc1)Cc1ccccc1	6.59
CN(CCC(F)(F)F)C(=O)[C@H]1CCC2=Cc3c(cnn3-c3ccc(F)cc3)C[C@@]21C	6.25
CCCN(CC(O)C(F)(F)F)C(=O)[C@H]1CCC2=Cc3c(cnn3-c3ccccc3)C[C@@]21C (stereo partly shown)	6.78
CCCCN(CC=O)C(=O)[C@H]1CCC2=Cc3c(cnn3-c3ccc(F)cc3)C[C@@]21C	6.27
C[C@]12Cc3cnn(-c4ccc(F)cc4)c3C=C1CC[C@@H]2C(=O)N1CCCC(Cc2cccc(C(F)(F)F)c2)C1 (stereo partly shown)	6.24

a: COCCN(Cc1ccc(OC)cc1)C(=O)[C@H]1CCC2=Cc3c(cnn3-c3ccc(F)cc3)C[C@@]21C
b: CCCN(CC1CCCO1)C(=O)[C@H]1CCC2=Cc3c(cnn3-c3ccc(F)cc3)C[C@@]21C (stereo partly shown) [Compound 63]
Returns: the label, a or b , whose recorded pEC50 is the lower number. Choose, then provide that item's label.
a
(a: 5.67, b: 6.14)

====

# measured_on: human GR (Homo sapiens, UniProt P04150)
# Construct: U937 cells contain an endogenous glucocorticoid receptor (GR); endogenous in cells; host or cells: U937 cells stably transfected with the TNF-alpha promoter/beta-lactamase reporter
# Sequence (P04150 1-777): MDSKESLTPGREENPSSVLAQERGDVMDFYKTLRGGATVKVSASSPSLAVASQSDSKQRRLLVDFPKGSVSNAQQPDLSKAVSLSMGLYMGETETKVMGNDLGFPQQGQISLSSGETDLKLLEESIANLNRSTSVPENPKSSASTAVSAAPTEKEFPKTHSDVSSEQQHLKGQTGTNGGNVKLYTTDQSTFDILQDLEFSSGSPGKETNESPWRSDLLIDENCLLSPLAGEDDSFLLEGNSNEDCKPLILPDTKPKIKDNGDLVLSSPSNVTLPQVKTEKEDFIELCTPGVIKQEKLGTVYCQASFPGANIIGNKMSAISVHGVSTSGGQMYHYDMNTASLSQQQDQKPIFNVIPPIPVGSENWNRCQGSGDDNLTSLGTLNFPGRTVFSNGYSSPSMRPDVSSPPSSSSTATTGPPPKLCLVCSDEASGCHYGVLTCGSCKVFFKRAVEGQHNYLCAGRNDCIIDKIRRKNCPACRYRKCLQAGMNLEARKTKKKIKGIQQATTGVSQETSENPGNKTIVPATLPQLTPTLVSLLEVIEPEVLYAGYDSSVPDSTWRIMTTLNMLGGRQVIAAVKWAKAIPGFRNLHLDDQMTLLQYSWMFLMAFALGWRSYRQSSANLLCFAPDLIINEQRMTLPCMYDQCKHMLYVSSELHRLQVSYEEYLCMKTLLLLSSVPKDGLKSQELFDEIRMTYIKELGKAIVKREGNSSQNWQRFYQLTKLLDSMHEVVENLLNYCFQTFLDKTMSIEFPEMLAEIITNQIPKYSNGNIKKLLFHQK
# method: Transrepression Assay (GITAR), TNFα-β-lactamase reporter gene in U937 cells
# Assay type: cell-based
# assay_context: inflection point; U937 cells; Table 1; read-out: Transrepression U937 Cells GITAR IP
attribute_measured: EC50 (nM)

Worked cases, EC50 given:
CCCCCN(CCO)C(=O)[C@H]1CCC2=Cc3c(cnn3-c3ccc(F)cc3)C[C@@]21C [Compound 38]	739
C[C@]12Cc3cnn(-c4ccc(F)cc4)c3C=C1CC[C@@H]2C(=O)N(CCc1ccccc1F)CC(O)C(F)(F)F (stereo partly shown) [Compound 84]	191
CCCCN(CC(C)O)C(=O)[C@H]1CCC2=Cc3c(cnn3-c3ccc(F)cc3)C[C@@]21C (stereo partly shown) [Compound 40]	141
CCN(CC(O)C(F)(F)F)C(=O)[C@H]1CCC2=Cc3c(cnn3-c3ccccc3)C[C@@]21C (stereo partly shown) [Compound 76]	225

P: C[C@]12Cc3cnn(-c4ccc(F)cc4)c3C=C1CC[C@@H]2C(=O)N(CCO)CCc1ccccc1 [Compound 35]
Q: CCCN(C(=O)[C@H]1CCC2=Cc3c(cnn3-c3ccc(F)cc3)C[C@@]21C)C(C)CC (stereo partly shown) [Compound 16]
Recorded EC50 values differ for P and Q ; which one is higher? Indicate your choice by writing its label.
P
(P: 945 nM, Q: 376 nM)
